# system_under_test: EGFR (UniProt P00533)
# Sequence (P00533 whole entry, looked up): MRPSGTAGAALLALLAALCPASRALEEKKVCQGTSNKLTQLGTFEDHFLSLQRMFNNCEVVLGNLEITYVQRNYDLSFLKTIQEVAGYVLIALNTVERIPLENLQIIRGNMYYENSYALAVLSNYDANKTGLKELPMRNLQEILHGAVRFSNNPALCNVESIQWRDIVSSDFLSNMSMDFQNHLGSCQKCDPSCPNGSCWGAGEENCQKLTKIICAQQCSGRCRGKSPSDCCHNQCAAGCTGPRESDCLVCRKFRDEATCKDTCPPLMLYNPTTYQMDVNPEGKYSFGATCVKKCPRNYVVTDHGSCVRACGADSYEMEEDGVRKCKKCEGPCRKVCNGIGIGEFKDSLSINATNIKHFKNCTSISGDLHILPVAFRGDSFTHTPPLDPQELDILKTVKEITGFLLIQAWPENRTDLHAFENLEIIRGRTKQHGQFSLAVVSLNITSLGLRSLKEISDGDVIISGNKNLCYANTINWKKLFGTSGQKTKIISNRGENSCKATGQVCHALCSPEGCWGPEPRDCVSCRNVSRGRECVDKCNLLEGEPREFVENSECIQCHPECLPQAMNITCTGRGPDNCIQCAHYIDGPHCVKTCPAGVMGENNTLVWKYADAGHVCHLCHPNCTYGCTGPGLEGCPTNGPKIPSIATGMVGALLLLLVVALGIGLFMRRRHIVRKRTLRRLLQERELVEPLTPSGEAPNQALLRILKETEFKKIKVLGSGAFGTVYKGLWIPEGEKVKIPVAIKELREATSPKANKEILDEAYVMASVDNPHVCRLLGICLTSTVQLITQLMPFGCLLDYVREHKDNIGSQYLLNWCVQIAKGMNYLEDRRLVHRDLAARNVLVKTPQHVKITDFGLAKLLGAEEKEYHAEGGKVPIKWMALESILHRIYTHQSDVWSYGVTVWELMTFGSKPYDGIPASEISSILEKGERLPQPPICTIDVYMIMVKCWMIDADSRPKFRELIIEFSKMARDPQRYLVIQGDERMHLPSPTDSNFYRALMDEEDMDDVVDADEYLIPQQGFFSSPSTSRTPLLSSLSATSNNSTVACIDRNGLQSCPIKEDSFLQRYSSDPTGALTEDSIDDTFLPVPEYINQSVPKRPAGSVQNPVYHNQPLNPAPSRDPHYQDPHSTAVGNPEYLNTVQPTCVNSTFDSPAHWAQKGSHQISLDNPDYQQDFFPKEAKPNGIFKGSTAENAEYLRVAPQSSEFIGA
Non-standard residues stand in square brackets, D forms with d. Residues, ends and D or L forms follow the SMILES beside them. *: point of attachment. pY = N[C@@H](Cc1ccc(OP(=O)(O)O)cc1)C(=O)O; O(2-Aminobenzoyl) = Nc1ccccc1C(=O)O*; X3 = O=C(O*)c1cnc2ccccc2c1; X4 = O=C(O*)c1ccccc1O
Simple rule here: IC50 less than 200 nM is true (1), otherwise false (0).

Answered cases to consult:
>>> category_label("CC[C@H](C)[C@H](NC(=O)[C@H](CC(N)=O)NC(=O)[C@@H](N)CCC(N)=O)C(=O)N[C@@H](Cc1ccc(OP(=O)(O)O)cc1)C(=O)N[C@H](C(=O)OC(=O)c1ccccc1N)C(C)C (H-QNI[pY]V-{O(2-Aminobenzoyl)})")
"true (1)"
>>> category_label("CC[C@H](C)[C@H](NC(=O)[C@H](CC(N)=O)NC(=O)[C@@H](N)CCC(N)=O)C(=O)N[C@@H](Cc1ccc(OP(=O)(O)O)cc1)C(=O)N[C@H](C(=O)OC(=O)c1ccccc1N)[C@@H](C)CC (H-QNI[pY]I-{O(2-Aminobenzoyl)})")
"true (1)"
>>> category_label("CC[C@H](C)[C@H](NC(=O)[C@H](CC(N)=O)NC(=O)[C@@H](N)CCC(N)=O)C(=O)N[C@@H](Cc1ccc(OP(=O)(O)O)cc1)C(=O)N[C@@H](CCC(=O)O)C(=O)OC(=O)c1cnc2ccccc2c1 (H-QNI[pY]E-X3)")
"false (0)"

In the following, a different compound is considered.
Q: Determine whether this compound shows IC50 lower than 200 nM (ties excluded): CC[C@H](C)[C@H](NC(=O)[C@H](CC(N)=O)NC(=O)[C@@H](N)CCC(N)=O)C(=O)N[C@@H](Cc1ccc(OP(=O)(O)O)cc1)C(=O)N[C@@H](CCC(=O)O)C(=O)OC(=O)c1ccccc1O (H-QNI[pY]E-X4)
A: false (0)

###

# pIC50 per entry for EGFR (UniProt P00533)
Non-standard residues stand in square brackets, D forms with d. Residues, ends and D or L forms follow the SMILES beside them. *: point of attachment. pY = N[C@@H](Cc1ccc(OP(=O)(O)O)cc1)C(=O)O; O(2-Aminobenzoyl) = Nc1ccccc1C(=O)O*; X8 = Nc1cc(N)cc(C(=O)O*)c1; X1 = Nc1ccccc1C(=O)OCN*; Acm = CC(=O)NC*
Units for pIC50: none; it is -log10 of a concentration expressed in mol/L.

These recorded examples may help you get a feel for the data.
>>> recorded_number("CC[C@H](C)[C@H](N)C(=O)N[C@H](C(=O)N[C@@H](Cc1ccc(OP(=O)(O)O)cc1)C(=O)N[C@@H](CC(=O)O)C(=O)OC(=O)c1ccccc1N)[C@@H](C)CC (H-II[pY]D-{O(2-Aminobenzoyl)})")
6.64
>>> recorded_number("CC[C@H](C)[C@H](NC(=O)[C@H](CC(N)=O)NC(=O)[C@@H](N)CCC(N)=O)C(=O)N[C@@H](Cc1ccc(OP(=O)(O)O)cc1)C(=O)N[C@@H](CCC(=O)O)C(=O)OC(=O)c1cc(N)cc(N)c1 (H-QNI[pY]E-X8)")
6.74
>>> recorded_number("CC[C@H](C)[C@H](NC(=O)[C@@H](N)CC(N)=O)C(=O)N[C@@H](Cc1ccc(OP(=O)(O)O)cc1)C(=O)N[C@@H](CCC(=O)O)C(=O)OC(=O)c1ccccc1N (H-NI[pY]E-{O(2-Aminobenzoyl)})")
7.66

Q: What measured pIC50 is associated with CC(=O)NCSC[C@H](NC(=O)[C@H](CC(N)=O)NC(=O)[C@@H](N)CCC(N)=O)C(=O)N[C@@H](Cc1ccc(OP(=O)(O)O)cc1)C(=O)N[C@@H](CSCNC(C)=O)C(=O)OC(=O)c1ccccc1N (H-QNC(Acm)[pY]C(Acm)-{O(2-Aminobenzoyl)}) on EGFR (UniProt P00533)?
A: 5.50

Q: Give recorded pIC50 with EGFR (UniProt P00533) for the following compound: CC[C@H](C)[C@H](NC(=O)[C@H](CC(N)=O)NC(=O)[C@@H](N)CCC(N)=O)C(=O)N[C@@H](Cc1ccc(OP(=O)(O)O)cc1)C(=O)NCOC(=O)c1ccccc1N (H-QNI[pY]-X1)
A: 8.22

###

# system_under_test: UniProt P00533
Positions of bridges follow the written chain, without caps; N, C: chain ends. Non-standard residues stand in square brackets, D forms with d. Residues, ends and D or L forms follow the SMILES beside them. *: point of attachment. pY = N[C@@H](Cc1ccc(OP(=O)(O)O)cc1)C(=O)O; O(2-Aminobenzoyl) = Nc1ccccc1C(=O)O*; X9 = O=S(=O)(O*)c1cccc2cccnc12; X13 = Nc1cc2ccccc2cc1C(=O)O*
Attribute: pIC50
Formally, pIC50 is defined as -log10 of the concentration c, with c in mol/L.

>>> recorded_number("CC[C@H](C)[C@H](NC(=O)[C@H](CC(N)=O)NC(=O)[C@H](N)CSCNC(C)=O)C(=O)N[C@@H](Cc1ccc(OP(=O)(O)O)cc1)C(=O)N[C@@H](CSCNC(C)=O)C(=O)OC(=O)c1ccccc1N")
6.57
>>> recorded_number("CC[C@H](C)[C@@H]1NC(=O)[C@H](CC(N)=O)NC(=O)[C@H](CCC(N)=O)NC(=O)[C@@H](N)CSSC[C@@H](C(=O)OC(=O)c2ccccc2N)NC(=O)[C@H](Cc2ccc(OP(=O)(O)O)cc2)NC1=O (H-CQNI[pY]C-{O(2-Aminobenzoyl)}; disulfide 1-6)")
7.82
>>> recorded_number("CC[C@H](C)[C@H](NC(=O)[C@H](CC(N)=O)NC(=O)[C@@H](N)CCC(N)=O)C(=O)N[C@@H](Cc1ccc(OP(=O)(O)O)cc1)C(=O)N[C@@H](CCC(=O)O)C(=O)OC(=O)c1cc2ccccc2cc1N (H-QNI[pY]E-X13)")
6.22

# context switch: different compound, same pIC50
Q: Requested read-out: pIC50. Entry: CC[C@H](C)[C@H](NC(=O)[C@H](CC(N)=O)NC(=O)[C@@H](N)CCC(N)=O)C(=O)N[C@@H](Cc1ccc(OP(=O)(O)O)cc1)C(=O)N[C@H](C(=O)OS(=O)(=O)c1cccc2cccnc12)[C@@H](C)CC (H-QNI[pY]I-X9)
A: 6.64

###

Positions of bridges follow the written chain, without caps; N, C: chain ends. Non-standard residues stand in square brackets, D forms with d. Residues, ends and D or L forms follow the SMILES beside them. *: point of attachment. pY = N[C@@H](Cc1ccc(OP(=O)(O)O)cc1)C(=O)O; O(2-Aminobenzoyl) = Nc1ccccc1C(=O)O*; X2 = O=C(O*)c1cc2ccccc2[nH]1; X7 = O=C(O*)c1cc2ccccc2cn1; X5 = O=C(O*)C1Cc2ccccc2N1; Ac6c = NC1(C(=O)O)CCCCC1; X11 = Nc1ccc(C(=O)O*)cc1; X10 = Nc1ncccc1C(=O)O*
Record set of IC50 for target or system UniProt P00533.
Please give a number only; it is taken to be in nM.

>>> recorded_number("CC[C@H](C)[C@H](NC(=O)[C@H](CC(N)=O)NC(=O)[C@@H](N)CCC(N)=O)C(=O)N[C@@H](Cc1ccc(OP(=O)(O)O)cc1)C(=O)N[C@@H](CCC(=O)O)C(=O)OC(=O)C1Cc2ccccc2N1 (stereo partly drawn) (H-QNI[pY]E-X5)")
74
>>> recorded_number("NC(=O)C[C@H](N)C(=O)NC1(C(=O)N[C@@H](Cc2ccc(OP(=O)(O)O)cc2)C(=O)N[C@@H](CCC(=O)O)C(=O)OC(=O)c2ccccc2N)CCCCC1 (H-N[Ac6c][pY]E-{O(2-Aminobenzoyl)})")
14
>>> recorded_number("NC(=O)CC[C@H](N)C(=O)N[C@@H](CC(N)=O)C(=O)N[C@H]1CSSC[C@@H](C(=O)OC(=O)c2ccccc2N)NC(=O)[C@H](Cc2ccc(OP(=O)(O)O)cc2)NC1=O (H-QNC[pY]C-{O(2-Aminobenzoyl)}; disulfide 3-5)")
570
>>> recorded_number("CC[C@H](C)[C@H](NC(=O)[C@H](CC(N)=O)NC(=O)[C@@H](N)CCC(N)=O)C(=O)N[C@@H](Cc1ccc(OP(=O)(O)O)cc1)C(=O)N[C@@H](CCC(=O)O)C(=O)OC(=O)c1cccnc1N (H-QNI[pY]E-X10)")
480

Q: Param readout= IC50; system= UniProt P00533; entry= CC[C@H](C)[C@H](NC(=O)[C@H](CC(N)=O)NC(=O)[C@@H](N)CCC(N)=O)C(=O)N[C@@H](Cc1ccc(OP(=O)(O)O)cc1)C(=O)N[C@@H](CCC(=O)O)C(=O)OC(=O)c1cc2ccccc2cn1 (H-QNI[pY]E-X7) ; returns value.
A: 550

Q: Param readout= IC50; system= UniProt P00533; entry= CC[C@H](C)[C@H](NC(=O)[C@H](CC(N)=O)NC(=O)[C@@H](N)CCC(N)=O)C(=O)N[C@@H](Cc1ccc(OP(=O)(O)O)cc1)C(=O)N[C@@H](CC(C)C)C(=O)OC(=O)c1ccccc1N (H-QNI[pY]L-{O(2-Aminobenzoyl)}) ; returns value.
A: 138

Q: API: value(readout= IC50, system= UniProt P00533, query= CC[C@H](C)[C@H](NC(=O)[C@H](CC(N)=O)NC(=O)[C@@H](N)CCC(N)=O)C(=O)N[C@@H](Cc1ccc(OP(=O)(O)O)cc1)C(=O)N[C@@H](CCC(=O)O)C(=O)OC(=O)c1ccc(N)cc1 (H-QNI[pY]E-X11) )
A: 230

Q: Hello, I am looking for reported IC50 with UniProt P00533 for CC[C@H](C)[C@H](NC(=O)[C@H](CC(N)=O)NC(=O)[C@@H](N)CCC(N)=O)C(=O)N[C@@H](Cc1ccc(OP(=O)(O)O)cc1)C(=O)N[C@@H](CCC(=O)O)C(=O)OC(=O)c1cc2ccccc2[nH]1 (H-QNI[pY]E-X2) . Could you help?
A: 200

Q: Lab request: please report IC50 under test system UniProt P00533 for CC[C@H](C)[C@H](NC(=O)[C@H](CC(N)=O)NC(=O)[C@@H](N)CCC(N)=O)C(=O)N[C@@H](Cc1ccc(OP(=O)(O)O)cc1)C(=O)N[C@@H](CCC(=O)O)C(=O)OC(=O)c1ccccc1N (H-QNI[pY]E-{O(2-Aminobenzoyl)})
A: 22
